System: HCT-116 colon
Assay: NCI-60 one-dose screen, 48 h
Conditions: 10 µM unless noted
About 83,000 compounds went through this panel and 20% of them were active in at least one assay; those are over-represented in the sample as a whole. Activity calls are given as the source filed them. How the source made its calls: active means growth percent below 10; inactive means the rest.
Answer with one of the outcomes active, inactive

Worked examples, 5 compounds total:
Query string: How was COc1ccc(NC(=O)C(=O)c2c[nH]c3ccc(F)cc23)cc1 classified in this test?
Result string: inactive

Query string: How was COc1ccc2c(c1)/C(=C\c1sc(=S)[nH]c1O)C(C(=O)O)=N2 classified in this test?
Result string: inactive

Query string: How was CCCCCCNC(=O)c1cc(NCc2cc(O)ccc2O)ccc1O classified in this test?
Result string: inactive

Query string: How was Cc1nc(Nc2ccc(NC(=S)Nc3ccccc3)cc2)c2ccccc2n1 classified in this test?
Result string: inactive

Query string: How was Clc1ccc(/C=C/c2nc(Nc3ccc(Cl)cc3)c3ccccc3n2)cc1 classified in this test?
Result string: inactive

More entries:
Query string: How was COc1ccc(-n2sc(=O)n(Cc3ccc(COC(=O)C(C)c4ccc(CC(C)C)cc4)cc3)c2=O)cc1 (stereo unspecified) classified in this test?
Result string: active

Query string: How was NC(N)=N/N=C(/c1ccccc1)c1ccccc1F classified in this test?
Result string: active

Query string: How was CC(=O)Nc1ccc2c(c1)Cc1c(F)cccc1-2 classified in this test?
Result string: inactive

Query string: How was C=C(Cl)COC(=O)C(C)(C)O classified in this test?
Result string: inactive

Query string: How was Cc1nn(Cc2ccccc2)cc1C(=O)Nc1sc2c(c1C(N)=O)CCC(=O)C2 classified in this test?
Result string: active

Query string: How was COc1ccc(-c2cc(-c3cc(OC)ccc3O)[nH]c(=O)c2C#N)cc1 classified in this test?
Result string: inactive

---

Tested on: OVCAR-5 ovarian
Experiment: NCI-60 one-dose screen, 48 h (100 = growth as untreated, 0 = no growth, -100 = all killed)
Conditions: 10 µM unless noted
Compounds without any hit were thinned out: in the full panel of roughly 83,000, 20% have a hit.
QUANTITY_KIND: growth (%)
API: value field is a number in %; no unit string.

Query string: Recorded growth for Cn1ccc(Cc2cnc(N)s2)n1 , please?
Result string: 106

Query string: Recorded growth for Cc1[nH]c(-c2nc3ccccc3[nH]2)c(C)c1C(=O)NNc1ccc(Cl)cc1 , please?
Result string: 101

Query string: Recorded growth for C[C@@H]1CC[C@@H]2[C@@H]1[C@H](OC(=O)/C=C/c1ccccc1)[C@]1(CCCOCCOCCOCCOC(=O)CCCC[C@@H]3SC[C@@H]4NC(=O)N[C@@H]43)C[C@@H](OC(=O)CO)[C@@]2(C)O1 , please?
Result string: 101

Query string: Recorded growth for COc1cc2nc(Nc3ccc(F)cc3)nc(N)c2cc1OC , please?
Result string: 99.1

More entries:
Query string: Recorded growth for COc1cc(-c2cc(-c3ccc(Nc4nc(Nc5ccccc5)nc(Nc5ccc(Cl)cc5)n4)cc3)nc(N)n2)cc(OC)c1OC , please?
Result string: 70

Query string: Recorded growth for C[C@H]1[C@H]2C3=CC[C@@H]4[C@@]5(C)C/C(=C/c6ccncc6)C(=O)C(C)(C)[C@@H]5CC[C@@]4(C)[C@]3(C)CC[C@@]2(C(=O)N2CCN(C)CC2)CC[C@@H]1C , please?
Result string: 86.7

Query string: Recorded growth for CCNCCNc1cc(C2CCCC2)c(C#N)c2nc3ccccc3n12 , please?
Result string: 71.2

Query string: Recorded growth for O=C(NCc1cccnc1)c1cc(-c2csc3c(=O)cc(N4CCOCC4)oc23)cc2c1OCCO2 , please?
Result string: 31.3

Query string: Recorded growth for Cc1cc(N2CCCCC2)nc(N(CCNc2ccnc3cc(Cl)ccc23)Cc2ccccn2)n1 , please?
Result string: 68.2

Query string: Recorded growth for C#C[C@]1(O)CC[C@H]2[C@@H]3CC=C4c5sc(N=C(N)N)nc5CC[C@]4(C)[C@H]3CC[C@@]21C , please?
Result string: 28

---

Test system: M14 melanoma
Experiment: NCI-60 one-dose screen, 48 h (100 = growth as untreated, 0 = no growth, -100 = all killed)
Conditions: 10 µM unless noted
About 83,000 compounds went through this panel and 20% of them were active in at least one assay; those are over-represented in the sample as a whole.
Measured growth, listed per entry.
API: value field is a number in %; no unit string.

Worked examples follow.
Query string: growth of CN(C)c1ccc(/C=C/c2c(F)cccc2F)cc1 on M14 melanoma?
Result string: 93.2

Query string: growth of CN1CCN(c2ccc(Nc3ncc(Cl)c(NC[C@@H]4CCCO4)n3)cc2)CC1 on M14 melanoma?
Result string: 21.7

Query string: growth of CC/C=C/[C@@H]1C=C[C@@H]2CCC[C@H]2[C@@H]1CC[C@H](O)[C@H](C)N on M14 melanoma?
Result string: -76.4

Query string: growth of CCN(CC)CC(O)CNc1c2ccc(Cl)cc2nc2ccc(OC)cc12 (stereo not given) on M14 melanoma?
Result string: -94.2

Query string: growth of C[C@H]1[C@H]2C3=CC[C@@H]4[C@@]5(C)C/C(=C/c6ccncc6)C(=O)C(C)(C)[C@@H]5CC[C@@]4(C)[C@]3(C)CC[C@@]2(C(=O)N2CCN(C)CC2)CC[C@@H]1C on M14 melanoma?
Result string: 65.7

Query string: growth of N#Cc1c(NC(=O)c2cccc(C(F)(F)F)c2)sc2c1CCC(=O)C2 on M14 melanoma?
Result string: -68.2

More entries:
Query string: growth of NC(=S)c1csc(CCNC(=O)c2ccccc2)n1 on M14 melanoma?
Result string: 110

Query string: growth of CN(C)c1ccc2cc(-c3ccccc3F)c(N)nc2c1 on M14 melanoma?
Result string: 10.5

Query string: growth of C[C@@H](C[C@H](CCOCc1cccnc1)c1ccccc1)c1cc2ccccc2o1 on M14 melanoma?
Result string: 92.8

Query string: growth of CC(C)(O)c1cccc(F)c1 on M14 melanoma?
Result string: 95.6

---

Measured growth, listed per entry.
Test system: NCI-H226 lung
Assay: NCI-60 one-dose screen, 48 h (100 = growth as untreated, 0 = no growth, -100 = all killed)
Details: 10 µM unless noted
Procedure: Growth inhibition of the NCI-H226 human Non-Small Cell Lung tumor cell line is measured as a screen for anti-cancer activity. Cells are grown in 96 well plates and exposed to the test compound for 48 hours. Compounds are tested at a single concentration, which is 10^-5 M for most compounds. The reported endpoint is percent growth (GI% or GIPRCNT), where numbers from 0 - 100% represent growth inhibition, and numbers from -100% - 0 represent cell death. […]
The panel holds about 83,000 compounds, 20% with a hit somewhere; the sample as a whole holds those more often.
API: value field is a number in %; no unit string.

Query string: Recorded growth for CCCCOc1nc2ccc(Cl)cc2cc1/C=C/C(=O)/C=C1/CC(c2cc3cc(Cl)ccc3nc2OCCCC)Nc2ccccc2N1 (stereo not given) , please?
Result string: 90.8

More entries:
Query string: Recorded growth for Clc1ccc(-c2cn(-c3ccccc3)c(-c3ccccc3)n2)cc1 , please?
Result string: 80.9

Query string: Recorded growth for O=C1Nc2ccccc2/C1=N/N=C/c1ccsc1 , please?
Result string: 106

Query string: Recorded growth for O=C(/C=C/C12c3ccccc3C(c3ccccc31)C1C(=O)N(c3ccccc3)C(=O)C12)c1ccccc1 (stereo not given) , please?
Result string: -27.4

Query string: Recorded growth for COc1ccc(/C(C)=C(\c2ccc(Cl)cc2)c2ccc(OCCN3CCCCC3)cc2)cc1F , please?
Result string: 77

Query string: Recorded growth for Clc1ccc(/C=N\N=c2\scc(-c3ccc(Cl)cc3)n2/N=C/c2ccc(Cl)cc2)cc1 , please?
Result string: 111

Query string: Recorded growth for CN(C)c1ccc2cc(-c3ccccc3F)c(N)nc2c1 , please?
Result string: 59.3

Query string: Recorded growth for COc1ccc(Oc2nc(Nc3ccc(N4CCCCC4)nc3)ncc2NC(=O)c2cc(OC)cc(OC)c2)cc1 , please?
Result string: 60.2

Query string: Recorded growth for Nc1ccc(CCCCc2ccccc2)c(Cl)c1 , please?
Result string: 96.8

Query string: Recorded growth for COc1ccc(/C(C)=C(\c2ccc(Cl)cc2)c2ccc(OCCCN(C)C)cc2)cc1F , please?
Result string: 98

Query string: Recorded growth for CCCCN1CCN(c2ccc3nc(-c4ccc5nc(-c6cc(OC)c(OC)c(OC)c6)[nH]c5c4)[nH]c3c2)CC1 , please?
Result string: 77.6

Query string: Recorded growth for Clc1ccc2[nH]c3c(NCCCN4CCOCC4)ncnc3c2c1 , please?
Result string: 86.1

Query string: Recorded growth for N#Cc1cnn2c(-c3ccc(Cl)cc3)nc(NC3CC3)nc12 , please?
Result string: 97.4

Query string: Recorded growth for COc1cc(NC(=O)c2cc(O)c(CC=C(C)C)c(O)c2)cc2c1O[C@]1(C)CC[C@@H](O)C(C)(C)[C@H]1C2 , please?
Result string: 79.4

Query string: Recorded growth for CSc1ccc(Cl)c(C(=O)Nc2sccc2C(N)=O)c1 , please?
Result string: 79.9
